Assay: Clearance in BALB/c mice at 10 mg/kg, iv
Assay type: ADME, organism-based
Set-up: dose 10 mg/kg, route intravenous
Settings: mouse, in vivo
Reported property: clearance (mL/min/kg)
# unit: mL/min/kg | format: bare number

Exercise: // lookup clearance for `COc1ccc(I)c(Sc2nc3c(N)ncnc3n2CCCNC(C)C)c1`
Solution: 62

---

Assay: Tmax in BALB/c mice at 100 mg/kg, po
Type: ADME, organism-based
Set-up: dose 100 mg/kg, route oral
Settings: mouse, in vivo
Reported property: Tmax (min)
# unit: min | format: bare number

Exercise: // lookup Tmax for CCC(C)NCCCn1c(Sc2cc(OC)ccc2I)nc2c(N)ncnc21 (configuration not stated)
Solution: 30

Next:
Exercise: // lookup Tmax for `COc1ccc(I)c(Sc2nc3c(N)ncnc3n2CCCNC(C)C)c1`
Solution: 30
